MEASUREMENT PROTOCOL: Clearance in rat at 5 mg/kg, iv
Format: ADME, organism-based
Parameters: dose 5 mg/kg, route intravenous
EXPERIMENTAL PARAMETERS: in vivo
READOUT: clearance (mL/min/kg)
Response body: numeric value in mL/min/kg, unit text excluded.

(Q) // query clearance value for entry CC(C)c1cc(Oc2c(Cl)cc(-n3nc(C#N)c(=O)[nH]c3=O)cc2Cl)n[nH]c1=O
(A) 2.35

---

MEASURED ON: Thyroid hormone receptor alpha (Homo sapiens, UniProt P10827)
Sequence (P10827 whole entry): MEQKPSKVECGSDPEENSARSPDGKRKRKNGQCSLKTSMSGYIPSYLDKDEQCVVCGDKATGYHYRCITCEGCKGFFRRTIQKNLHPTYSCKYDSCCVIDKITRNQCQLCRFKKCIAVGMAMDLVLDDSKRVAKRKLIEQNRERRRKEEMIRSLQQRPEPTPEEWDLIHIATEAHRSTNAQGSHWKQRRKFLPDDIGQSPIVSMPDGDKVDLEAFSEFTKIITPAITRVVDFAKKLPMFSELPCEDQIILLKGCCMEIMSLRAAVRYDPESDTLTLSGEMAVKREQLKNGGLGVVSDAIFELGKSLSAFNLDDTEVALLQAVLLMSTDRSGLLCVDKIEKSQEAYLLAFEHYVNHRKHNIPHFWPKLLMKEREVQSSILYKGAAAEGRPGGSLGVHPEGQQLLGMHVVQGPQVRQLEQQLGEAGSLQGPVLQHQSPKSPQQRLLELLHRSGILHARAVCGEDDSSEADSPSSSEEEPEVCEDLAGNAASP
MEASUREMENT PROTOCOL: Agonist activity at recombinant His6-tagged THR-alpha (unknown origin) expressed in Escherichia coli BL21(DE3) co-expressing RXR preincubated for 30 mins assessed as biotin-GRIP1 peptide recruitment by HTRF assay
The reader will find reported log10 of EC50 values listed item by item below.
All values: base-10 log of EC50 in nM.

# example entries with known answers
{"columns": ["SMI", "log10 of EC50"],
 "data": [
  ["CC(C)c1cc(Oc2c(Cl)cc(NC(=O)C(=O)O)cc2Cl)n[nH]c1=O", 2.32],
  ["CC(C)c1cc(Oc2c(Br)cc(CCC(=O)O)cc2Br)n[nH]c1=O", 2.59],
  ["Cc1cc(CC(=O)O)cc(Cl)c1Oc1cc(C(C)C)c(=O)[nH]n1", 4.08],
  ["CC(C)c1cc(Sc2c(Cl)cc(CC(=O)O)cc2Cl)n[nH]c1=O", 3.95]
]}

(Q) // query log10 of EC50 value for entry CC(C)c1cc(Cc2c(Cl)cc(-n3ncc(=O)[nH]c3=O)cc2Cl)n[nH]c1=O
(A) 2.91
